Can you tell me pKd for the items I'm about to list?
Target: T1, EsCas13d, nuclease-dead (Eubacterium siraeum, UniProt B0MS50, R295A;H300A;R849A;H854A)
T1 sequence: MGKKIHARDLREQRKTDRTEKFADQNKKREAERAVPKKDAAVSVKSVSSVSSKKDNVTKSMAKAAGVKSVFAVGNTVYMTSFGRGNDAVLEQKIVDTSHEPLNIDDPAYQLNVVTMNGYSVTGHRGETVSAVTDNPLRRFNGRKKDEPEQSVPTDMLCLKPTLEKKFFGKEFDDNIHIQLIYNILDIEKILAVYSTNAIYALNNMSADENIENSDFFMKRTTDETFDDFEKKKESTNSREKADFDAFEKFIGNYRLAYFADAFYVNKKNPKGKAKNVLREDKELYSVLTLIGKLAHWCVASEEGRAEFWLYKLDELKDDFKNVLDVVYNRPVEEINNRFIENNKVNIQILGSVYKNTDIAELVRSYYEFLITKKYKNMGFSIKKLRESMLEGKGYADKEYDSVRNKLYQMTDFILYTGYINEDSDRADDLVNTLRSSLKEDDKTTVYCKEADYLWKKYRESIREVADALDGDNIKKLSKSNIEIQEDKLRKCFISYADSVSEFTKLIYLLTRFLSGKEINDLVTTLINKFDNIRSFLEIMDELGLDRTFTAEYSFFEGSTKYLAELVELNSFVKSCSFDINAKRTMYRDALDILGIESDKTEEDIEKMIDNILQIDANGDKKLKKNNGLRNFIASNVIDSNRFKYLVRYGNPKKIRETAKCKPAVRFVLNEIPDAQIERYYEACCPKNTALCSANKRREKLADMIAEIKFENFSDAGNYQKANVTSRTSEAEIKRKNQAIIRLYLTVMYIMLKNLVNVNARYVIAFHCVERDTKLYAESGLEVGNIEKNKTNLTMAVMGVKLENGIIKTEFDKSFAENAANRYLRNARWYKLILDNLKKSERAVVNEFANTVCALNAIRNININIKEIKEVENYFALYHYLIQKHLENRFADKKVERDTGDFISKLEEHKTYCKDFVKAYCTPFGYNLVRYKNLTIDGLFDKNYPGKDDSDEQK
Assay: crRNA (strand 1, pre-loaded); Mg2+; 40 mM Tris-HCl pH 7.5, 150 mM NaCl, 6 mM MgCl2, 1 mM DTT, 0.1% Tween-20, 0.2 mg/ml BSA; 25 C; 10 min per concentration, then washed
Conditions: tags: His6-TwinStrep-SUMO cleaved; N-terminal SNAP kept (SNAP-Surface 488); label: 3' end held by stalled T7 RNA polymerase
Quick note: pKd values are minus log10 of concentrations in mol/L.

Query string: Supply recorded pKd for target 2 MT 5'PFS AAU 3'PFS UGU (mixed) RNA 1: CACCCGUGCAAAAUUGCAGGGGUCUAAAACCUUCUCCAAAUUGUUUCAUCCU RNA 2: GGGAAUGGAUCCACAUCUACGAAUUCAAUAGGAUGAAACAAUUUGGAGAAGUGUAGAUCGGAAGAGCACACGU here.
Result string: 8.04

Query string: Output measured pKd for this item: target 3 C6U,U22A (mixed) RNA 1: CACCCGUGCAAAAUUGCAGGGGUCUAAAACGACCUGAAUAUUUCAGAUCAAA RNA 2: GGGAAUGGAUCCACAUCUACGAAUUCGUUAUUGAUCUGAAAUAUUUAGGUCUGCAGAUCGGAAGAGCACACGU
Result string: 7.88

Query string: Look up and state reported pKd for target 2 MT 5'PFS CGG 3'PFS CAU (mixed) RNA 1: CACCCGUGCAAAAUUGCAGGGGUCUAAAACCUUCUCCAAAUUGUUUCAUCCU RNA 2: GGGAAUGGAUCCACAUCUACGAAUUCCGGAGGAUGAAACAAUUUGGAGAAGCAUAGAUCGGAAGAGCACACGU
Result string: 8.36

Query string: Look up and state reported pKd for target 1 insA 3' of 19,insA 3' of 5 (mixed) RNA 1: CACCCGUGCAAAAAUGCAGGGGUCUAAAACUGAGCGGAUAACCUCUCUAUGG RNA 2: GGGAAUGGAUCCACAUCUACGAAUUCGUACCAUAAGAGAGGUUAUCCGACUCACCGAGAUCGGAAGAGCACACGU
Result string: 7.80

Measured values drawn from paper PMC10786891 for this set.
